Measured % Cell viability, listed per entry for reference.
system: CHIKV DRDE-07; experiment: In vitro screening against CHIKV (CPE inhibition and MTT cell viability); type: cell-based, chikungunya virus; conditions: Table S1; 72 hpi, MTT assay, CHIKV-infected Vero cells

[
  {
    "compound": "CC1=C(C(=O)OCCN(C)C)C(c2ccc(C)cc2)NC(=O)N1 (centres unmarked)",
    "% Cell viability": "12.75%"
  },
  {
    "compound": "CC1=C(C(=O)OCC[N+](C)(C)C)C(c2ccc(Cl)cc2)NC(=O)N1 (centres unmarked)",
    "% Cell viability": "3.33%"
  },
  {
    "compound": "CC(=O)Cc1noc(C2CCCCC2)n1",
    "% Cell viability": "29.64%"
  },
  {
    "compound": "CCOc1ccc(C2NC(=O)Oc3ccc4ccccc4c32)cc1 (centres unmarked)",
    "% Cell viability": "7.61%"
  },
  {
    "compound": "CC1(C)CC(=O)C2=C(C1)OC1=C(C(=O)CC(C)(C)C1)C2c1ccc(C2C3=C(CC(C)(C)CC3=O)OC3=C2C(=O)CC(C)(C)C3)cc1",
    "% Cell viability": "11.14%"
  },
  {
    "compound": "O=C1NC(c2ccc(C(F)(F)F)cc2)c2c(ccc3ccccc23)O1 (centres unmarked)",
    "% Cell viability": "10.59%"
  },
  {
    "compound": "Fc1ccc(C2c3c(ccc4ccccc34)Oc3ccc4ccccc4c32)cc1",
    "% Cell viability": "14.01%"
  },
  {
    "compound": "O=C(N/N=C/c1ccco1)c1cccnc1",
    "% Cell viability": "0%"
  },
  {
    "compound": "CC1CN(c2ccc(C(=N)NO)c(Cl)c2)CC(C)N1 (centres unmarked)",
    "% Cell viability": "-21.8%"
  },
  {
    "compound": "Clc1ccc(C2c3c(ccc4ccccc34)Oc3ccc4ccccc4c32)cc1",
    "% Cell viability": "17.1%"
  },
  {
    "compound": "COc1ccc(/C(=N\\NC(=O)c2cccnc2)c2ccccc2)cc1",
    "% Cell viability": "20.87%"
  },
  {
    "compound": "CC1=C(C(=O)OCCN(C)C)C(c2ccc([N+](=O)[O-])cc2)NC(=O)N1 (centres unmarked)",
    "% Cell viability": "24.54%"
  },
  {
    "compound": "CC1(C)CC(=O)C2=C(C1)OC1=C(C(=O)CC(C)(C)C1)C2c1ccc([N+](=O)[O-])cc1",
    "% Cell viability": "17.99%"
  },
  {
    "compound": "C=C(C)CCOC(=O)C1=C(C)NC(=O)NC1c1ccc(OC)cc1 (centres unmarked)",
    "% Cell viability": "21.11%"
  },
  {
    "compound": "C#CCOC(=O)C1=C(C)NC(=O)NC1c1cccc(Cl)c1 (centres unmarked)",
    "% Cell viability": "10.94%"
  },
  {
    "compound": "CC(=O)Cc1noc(-c2ccc(Br)cc2)n1",
    "% Cell viability": "10.38%"
  },
  {
    "compound": "O=C(NNC(=O)c1ccccc1Cl)c1ccncc1 [DCR10, N'-(2-chlorobenzoyl)isonicotinohydrazide]",
    "% Cell viability": "21.19%"
  },
  {
    "compound": "CCOc1cc(/C=N/NC(=O)c2ccncc2)ccc1O",
    "% Cell viability": "0%"
  },
  {
    "compound": "CC1=C(C(=O)OCCN(C)C)C(c2ccc(N(C)C)cc2)NC(=O)N1 (centres unmarked)",
    "% Cell viability": "15.11%"
  },
  {
    "compound": "CC(=O)Cc1noc(C(c2ccccc2)c2ccccc2)n1",
    "% Cell viability": "16.42%"
  }
]

----------
tested on: Vero cells; assay: Cytotoxicity MTT assay in Vero cells (MNTD, CC50); type: cell-based, African green monkey; settings: Table S1; Vero cells
Give 1.0 when the value for MNTD is at least 50 µM. Give 0.0 when it is less.

[
  {
    "compound": "COc1cccc(N2CCCCC2)c1C#N",
    "label class": 1.0
  },
  {
    "compound": "CC(=O)NNC(=O)c1ccncc1 [DCR13, N'-acetylisonicotinohydrazide]",
    "label class": 1.0
  },
  {
    "compound": "CC1=C(C(=O)OCCN(C)C)C(c2ccc(N(C)C)cc2)NC(=S)N1 (stereo not shown)",
    "label class": 1.0
  },
  {
    "compound": "O=C(N/N=C/c1ccc(Cl)cc1Cl)c1ccncc1",
    "label class": 0.0
  },
  {
    "compound": "CC1CN(c2ccccc2C#N)CC(C)N1 (stereo not shown)",
    "label class": 1.0
  },
  {
    "compound": "COc1ccc(-c2nc(CC(C)=O)no2)cc1",
    "label class": 1.0
  },
  {
    "compound": "Clc1cccc(C2c3c(ccc4ccccc34)Oc3ccc4ccccc4c32)c1",
    "label class": 0.0
  },
  {
    "compound": "C#CCOC(=O)C1=C(C)NC(=O)NC1c1ccc(Cl)cc1 (stereo not shown)",
    "label class": 1.0
  },
  {
    "compound": "CCOc1ccc(C2NC(=O)NC(C)=C2C(=O)OCC[N+](C)(C)C)cc1 (stereo not shown)",
    "label class": 0.0
  }
]

----------
Reported log10(MNTD) values are given for each entry in this list.
tested on: Vero cells; test: Cytotoxicity MTT assay in Vero cells (MNTD, CC50); format: cell-based, African green monkey; conditions: Table S1; Vero cells
observable: log10(MNTD) (log10 of the value in µM)

[
  {
    "compound": "O=C1NC(c2cccc(Cl)c2)c2c(ccc3ccccc23)O1 (centres unmarked) [DCR67]",
    "reading": 1.70
  },
  {
    "compound": "CC1(C)CC(=O)C2=C(C1)OC1=C(C(=O)CC(C)(C)C1)C2c1ccccc1Cl",
    "reading": 2.10
  },
  {
    "compound": "CC1=C(C(=O)OCCN(C)C)C(c2ccc(Cl)cc2)NC(=O)N1 (centres unmarked)",
    "reading": 1.80
  },
  {
    "compound": "C=CCOC(=O)C1=C(C)NC(=O)NC1c1ccc(OC)cc1 (centres unmarked)",
    "reading": 2.62
  },
  {
    "compound": "CCOc1cc(C2C3=C(CC(C)(C)CC3=O)OC3=C2C(=O)CC(C)(C)C3)ccc1O",
    "reading": 1.19
  },
  {
    "compound": "CC1(C)CC(=O)C2=C(C1)OC1=C(C(=O)CC(C)(C)C1)C2c1ccc(Cl)cc1",
    "reading": 1.49
  },
  {
    "compound": "COc1cc(-c2cc(-c3ccc(O)cc3)nn2C(=O)c2cccnc2)cc(OC)c1OC",
    "reading": 1.49
  },
  {
    "compound": "O=C(N/N=C/c1ccco1)c1cccnc1",
    "reading": 1.80
  },
  {
    "compound": "O=C(N/N=C/c1ccccc1Br)c1cccnc1",
    "reading": 1.19
  },
  {
    "compound": "CC1=C(C(=O)OCC[N+](C)(C)C)C(c2ccc(Cl)cc2)NC(=O)N1 (centres unmarked)",
    "reading": 1.80
  },
  {
    "compound": "Fc1cccc(C2c3c(ccc4ccccc34)Oc3ccc4ccccc4c32)c1",
    "reading": 1.49
  },
  {
    "compound": "N#Cc1ccccc1N1CCCCC1",
    "reading": 2.40
  },
  {
    "compound": "C/C(=N\\NC(=O)c1ccncc1)c1c(O)ccc2ccccc12",
    "reading": 1.49
  },
  {
    "compound": "O=C(CCl)NNC(=O)c1ccncc1 [DCR12, N'-(2-chloroacetyl)isonicotinohydrazide]",
    "reading": 1.49
  },
  {
    "compound": "COc1cccc(C2C3=C(CC(C)(C)CC3=O)OC3=C2C(=O)CC(C)(C)C3)c1",
    "reading": 2.10
  },
  {
    "compound": "Nc1nc(N)c2cc(F)ccc2n1",
    "reading": 2.48
  },
  {
    "compound": "Cc1ccccc1/C=N/NC(=O)c1ccncc1",
    "reading": 1.80
  },
  {
    "compound": "CC(=O)Cc1noc(C2CCCCC2)n1",
    "reading": 2.10
  },
  {
    "compound": "Brc1cc2c(c3ncccc13)Oc1cc(Br)c3cccnc3c1O2",
    "reading": 1.70
  },
  {
    "compound": "CC1(C)CC(=O)C2=C(C1)OC1=C(C(=O)CC(C)(C)C1)C2c1cccc([N+](=O)[O-])c1",
    "reading": 1.49
  }
]

----------
test system: CHIKV DRDE-07; assay: In vitro screening against CHIKV (CPE inhibition and MTT cell viability); format: cell-based, chikungunya virus; conditions: Table S1; 72 hpi, MTT assay, CHIKV-infected Vero cells
% Cell viability listing for selected molecules.
observable: % Cell viability (%)

[
  {
    "molecule": "O=C(O)c1ccc(/C=N/NC(=O)c2ccncc2)cc1",
    "observable": "% Cell viability",
    "reading": 16.82
  },
  {
    "molecule": "O=C(O)c1ccc(/C=N/NC(=O)c2cccnc2)cc1",
    "observable": "% Cell viability",
    "reading": 15.63
  },
  {
    "molecule": "N#Cc1ccc(N2CCN(CCO)CC2)cc1N1CCN(CCO)CC1",
    "observable": "% Cell viability",
    "reading": 18.09
  },
  {
    "molecule": "N#Cc1cc(F)ccc1N1CCCCC1",
    "observable": "% Cell viability",
    "reading": 0
  },
  {
    "molecule": "O=C(N/N=C/c1cccc([N+](=O)[O-])c1)c1cccnc1",
    "observable": "% Cell viability",
    "reading": 20.39
  },
  {
    "molecule": "C#CCOC(=O)C1=C(C)NC(=O)NC1c1ccc(Cl)cc1 (stereo not shown)",
    "observable": "% Cell viability",
    "reading": 11.05
  },
  {
    "molecule": "O=C(NNC(=O)c1ccccc1Cl)c1cccnc1 [DCR5, N'-(2-chlorobenzoyl)nicotinohydrazide]",
    "observable": "% Cell viability",
    "reading": 13.49
  },
  {
    "molecule": "O=C(N/N=C/c1ccc(Cl)cc1Cl)c1cccnc1",
    "observable": "% Cell viability",
    "reading": 26.11
  },
  {
    "molecule": "COc1ccc(C2C3=C(CC(C)(C)CC3=O)OC3=C2C(=O)CC(C)(C)C3)cc1",
    "observable": "% Cell viability",
    "reading": 11.01
  },
  {
    "molecule": "O=C(N/N=C/c1cccc(Br)c1)c1cccnc1",
    "observable": "% Cell viability",
    "reading": 19.28
  }
]
